- SYSTEM NAME: T1, recombinant truncated mouse furin (mouse, UniProt P23188 108-714, N-glycosylated at two of three potential sites)
- T1 construct: extracellular domain; Purified by ion exchange and gel permeation; also called recombinant furin; recombinant mouse furin
- T1 sequence (P23188 108-714): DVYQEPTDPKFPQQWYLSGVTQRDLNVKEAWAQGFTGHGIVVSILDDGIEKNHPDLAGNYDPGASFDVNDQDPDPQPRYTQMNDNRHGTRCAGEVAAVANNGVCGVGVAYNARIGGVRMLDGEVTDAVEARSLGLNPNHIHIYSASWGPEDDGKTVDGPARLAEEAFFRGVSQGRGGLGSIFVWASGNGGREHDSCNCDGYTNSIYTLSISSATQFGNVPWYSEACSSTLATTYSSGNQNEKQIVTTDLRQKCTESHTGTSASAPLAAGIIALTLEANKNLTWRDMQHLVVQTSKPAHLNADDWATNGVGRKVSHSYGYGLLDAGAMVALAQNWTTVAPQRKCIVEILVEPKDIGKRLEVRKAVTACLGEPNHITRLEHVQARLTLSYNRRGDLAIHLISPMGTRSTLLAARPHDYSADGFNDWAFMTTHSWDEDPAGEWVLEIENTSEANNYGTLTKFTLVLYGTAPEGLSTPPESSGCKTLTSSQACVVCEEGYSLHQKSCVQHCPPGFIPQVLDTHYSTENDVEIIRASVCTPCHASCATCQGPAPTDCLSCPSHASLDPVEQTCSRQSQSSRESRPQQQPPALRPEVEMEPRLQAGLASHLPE
- TEST NAME: enzyme inhibition, pERTKR-MCA hydrolysis (fluorescence), competitive Ki
Rule: Ki below 5000 nM gives y, anything at or above gives n.

Consider the worked cases shown below.
>>> assigned_class("Ac-HRKRRR-NH2 (L-hexapeptide) [Ac-HRKRRR-NH2]")
"y"
>>> assigned_class("Ac-KRKRRR-NH2 (L-hexapeptide) [Ac-KRKRRR-NH2]")
"y"
>>> assigned_class("Ac-RRKRRR-NH2 [Ac-RRKRRR-NH2]")
"y"

Then there is this binder:
query: Quick check: does Ac-MHKRRR-NH2 (L-hexapeptide) [Ac-MHKRRR-NH2] have Ki under 5000 nM?
result: n
